Here the recorded Kd is given for each entry.
biological target: Tyrosine-protein kinase JAK2 (Homo sapiens, UniProt O60674); set-up: species or system Sf9
Sequence (O60674 whole entry): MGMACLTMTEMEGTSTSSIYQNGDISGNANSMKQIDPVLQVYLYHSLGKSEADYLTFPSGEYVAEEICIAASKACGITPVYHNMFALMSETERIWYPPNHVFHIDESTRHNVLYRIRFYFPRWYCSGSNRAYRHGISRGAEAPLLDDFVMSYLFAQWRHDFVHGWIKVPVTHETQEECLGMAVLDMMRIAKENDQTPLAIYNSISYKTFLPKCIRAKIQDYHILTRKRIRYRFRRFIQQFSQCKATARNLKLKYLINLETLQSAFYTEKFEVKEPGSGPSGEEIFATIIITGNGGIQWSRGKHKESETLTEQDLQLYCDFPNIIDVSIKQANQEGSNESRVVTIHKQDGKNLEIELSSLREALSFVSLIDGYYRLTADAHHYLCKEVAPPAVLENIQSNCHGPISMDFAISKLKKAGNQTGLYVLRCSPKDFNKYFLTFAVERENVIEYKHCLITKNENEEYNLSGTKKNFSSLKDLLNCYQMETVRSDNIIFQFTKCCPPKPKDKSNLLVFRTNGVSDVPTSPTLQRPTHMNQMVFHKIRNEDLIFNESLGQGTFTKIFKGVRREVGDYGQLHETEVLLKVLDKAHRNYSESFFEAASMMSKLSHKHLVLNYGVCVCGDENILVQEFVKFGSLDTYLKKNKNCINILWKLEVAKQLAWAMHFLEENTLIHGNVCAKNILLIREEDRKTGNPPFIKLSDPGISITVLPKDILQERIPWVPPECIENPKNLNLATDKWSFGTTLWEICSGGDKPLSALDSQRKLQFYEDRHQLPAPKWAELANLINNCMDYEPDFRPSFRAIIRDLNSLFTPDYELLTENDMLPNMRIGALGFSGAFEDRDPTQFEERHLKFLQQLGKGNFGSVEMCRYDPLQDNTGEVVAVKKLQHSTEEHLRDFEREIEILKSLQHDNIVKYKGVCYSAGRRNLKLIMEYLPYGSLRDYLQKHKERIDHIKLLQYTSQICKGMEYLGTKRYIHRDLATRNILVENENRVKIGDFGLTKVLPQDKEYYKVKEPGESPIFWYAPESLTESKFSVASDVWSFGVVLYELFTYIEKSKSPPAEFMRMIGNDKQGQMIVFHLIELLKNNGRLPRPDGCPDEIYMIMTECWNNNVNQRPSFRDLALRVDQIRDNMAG
Report the figure in µM without appending any unit label.

Below, 2 compounds whose answers are already recorded.
[[record]]
compound = "Nc1nc(Nc2ccc(S(N)(=O)=O)cc2)nn1C(=O)Nc1cccnc1"
value_reported = 12.3

[[record]]
compound = "Nc1nc(Nc2ccc(S(N)(=O)=O)cc2)nn1C(=O)Nc1ccccc1"
value_reported = 4.7


Prompt: Kd lookup needed for CC(C)CCN1c2nc(Nc3cc(F)c(O)c(F)c3)ncc2N(C)C(=O)C1C (stereo not drawn) , thanks.
Completion: 2
